Here, each record is paired with measured melting point data.

Below, 5 molecules whose answers are already recorded.
CN(c1cccc2cc(-c3nccs3)[nH]c12)S(=O)(=O)c1ccsc1CO
192 °C
Cc1c(Cc2ccccc2)c(=O)oc2cc(OCC3=NNN(C)N3)cc(OCC3=NNN(C)N3)c12
71 to 76 °C
CCCCCCCC(=O)c1ccc(OC(C)=O)c(C(=O)O)c1
130 °C
CC(C)NCC(O)COc1cccc(-c2nc(C(F)(F)F)c[nH]2)c1 (stereo unspecified)
162 to 164 °C
O=C(O)c1cc(Oc2ccc(Cl)cc2)c(Cl)cc1[N+](=O)[O-]
160 to 162 °C

Now look at this one.
INPUT: melting point for `CC(C)C[C@H](N)C(=O)N[C@@H](CC1CCCCC1)[C@@H](O)c1ccccn1` ?
OUTPUT: 98 to 100 °C

---

Here, each record is paired with measured melting point data.

INPUT: melting point for `CCOC(=O)c1cn(CC)c2c(=O)c3cc(Cl)ccc3oc2c1=O` ?
OUTPUT: 257 to 259 °C

INPUT: melting point for CC(O)c1coc2cc(NS(C)(=O)=O)c(Oc3ccccc3)cc2c1=O (stereo not drawn) ?
OUTPUT: 136 to 138 °C

INPUT: melting point for `O=C(Nc1ccccc1S(=O)(=O)c1ccccc1)N[C@@H](Cc1ccc(NC(=O)c2c(Cl)cncc2Cl)cc1)C(=O)O` ?
OUTPUT: 214 °C

---

MEASURE_NAME: melting point

Below, 3 compounds whose answers are already recorded.
O=[N+]([O-])c1cc(C(F)(F)F)cc2nc(N3CCN(c4ncccc4C(F)(F)F)CC3)[nH]c12
192 °C
CN(C1=NC(=O)C(=O)S1)c1ccc(-c2ncn(-c3ccc(OC(F)(F)F)cc3)n2)cc1
114 to 118 °C
Nc1ccc2[nH]c3ccc([N+](=O)[O-])cc3c(=O)c2c1
> 350 °C

INPUT: melting point for `Cc1nc(N)nc(N)c1N1CCN(Cc2ccccc2)CC1` ?
OUTPUT: 209 to 210 °C

INPUT: melting point for COc1ccc(-c2cc(Cl)cc3c2NC(CN)CO3)c(Cl)c1 (stereo not given) ?
OUTPUT: 105 °C

INPUT: melting point for `CCC(CC)c1ccc(C=O)c2nc(Oc3c(C)cc(Cl)cc3Cl)n(C)c12` ?
OUTPUT: 148 to 149 °C

INPUT: melting point for `COc1ccc(N=C(NC(=S)NCc2cccnc2)c2ccccc2)cc1` ?
OUTPUT: 142 to 143 °C

INPUT: melting point for `Cn1nc(-c2c(F)cccc2Cl)nc1-c1ccc(CBr)c(Cl)c1` ?
OUTPUT: 124 to 126 °C

INPUT: melting point for `CCCc1ncc(C(=O)OCC)c(NCc2ccc(-c3ccccc3-c3nnnn3C(c3ccccc3)(c3ccccc3)c3ccccc3)cc2)n1` ?
OUTPUT: 132 to 133 °C

INPUT: melting point for `COc1ccc(-c2oncc2CCC(=O)O)cc1OC` ?
OUTPUT: 169 to 170 °C

INPUT: melting point for `COC(=O)c1ccc2oc3c(c(=O)c2c1)CCCC3=Cc1ccccc1` ?
OUTPUT: 168 to 170 °C

INPUT: melting point for `O=C(Nc1ccccc1C(=O)O)c1nnc(S)o1` ?
OUTPUT: 236 to 237 °C

INPUT: melting point for `COC(=O)c1oc(C(C)(C)C)cc1NC(=O)Nc1cccc(Cl)c1Cl` ?
OUTPUT: 195 to 197 °C

INPUT: melting point for `CC(C)(C)NC(=O)[C@@H]1C[C@H](Cl)CN1C(=O)[C@@H](O)[C@H](Cc1ccccc1)NC(=O)[C@H](CC(N)=O)NC(=O)OC(C)(C)C` ?
OUTPUT: 126 to 132 °C

INPUT: melting point for `CC(C)(C)c1cc(CN(c2cccnc2)S(=O)(=O)c2ccc(F)cc2)cc(C(C)(C)C)c1O` ?
OUTPUT: 137 to 138 °C

INPUT: melting point for `CCOC(=O)c1cn(C2CC2)c2c(Cl)c(F)c(F)cc2c1=O` ?
OUTPUT: 154 to 157 °C

INPUT: melting point for `O=S(=O)(NC1CCCCC1)c1ccc(Nc2nccc(Cl)n2)cc1` ?
OUTPUT: 202 to 204 °C

INPUT: melting point for `Oc1noc2ccc(F)cc12` ?
OUTPUT: 201 to 203 °C

INPUT: melting point for `C[C@@H](CO)n1cc(C(=O)O)c(=O)c2cc(F)c(N3CCN(C)CC3)c(F)c21` ?
OUTPUT: 250 to 255 °C

INPUT: melting point for `Cc1c(Br)cc(NC(=O)c2cccc(CSc3cnccn3)c2)cc1Br` ?
OUTPUT: 119 to 127 °C

INPUT: melting point for `CN(C)CCc1c[nH]c2ccc(C(N)=S)cc12` ?
OUTPUT: 155 °C

INPUT: melting point for COc1ccc(CC2c3c(cc(OC)c(OC)c3O)CCN2C)cc1 (stereo not given) ?
OUTPUT: 112 to 114 °C

INPUT: melting point for `CC(C)(C(N)=O)c1ccc(C(=O)O)cc1` ?
OUTPUT: 218 to 219 °C

INPUT: melting point for `Cc1csc(C(=O)NN)c1N` ?
OUTPUT: 141 to 143 °C

---

Here, each record is paired with measured melting point data.

Below, 4 molecules whose answers are already recorded.
COc1cc2cc(COCC(=O)N3CCN(C)CC3)c(CO)c(-c3ccnc(-n4c(=O)ccc5ccccc54)c3)c2cc1OC
100 to 102 °C
O=C(O)COc1cc(F)ccc1C(=S)NCc1ccc(Br)cc1F
154 to 157 °C
COc1ccc(Cl)c2c1NC(=O)C2=[N+]=[N-]
206 to 207 °C
Cc1cccc(OCC2=NCCN2C(=S)N(C)C)c1C
124 to 127 °C

INPUT: melting point for O=C1C2CCCC2=Nc2ccccc2N1Cc1cccc([N+](=O)[O-])c1 (centres undefined) ?
OUTPUT: 124 to 126 °C

INPUT: melting point for `O=Cc1ccc(-c2ncn(-c3ccc(OC(F)(F)F)cc3)n2)cc1` ?
OUTPUT: 137 to 140 °C

INPUT: melting point for `Cc1nc(N2CCN(Cc3ccccc3)C2=O)sc1C(=O)NCc1cccc(F)c1` ?
OUTPUT: 169 to 171 °C

INPUT: melting point for Cc1ccc(C2c3c(C)c(N4C(=O)c5ccccc5C4=O)c(C)c(C)c3OC2(C)C)cc1 (centres undefined) ?
OUTPUT: 222 to 224 °C

---

Here, each record is paired with measured melting point data.

Below, 5 compounds whose answers are already recorded.
CC(C)(CC(O)(CO)C(F)(F)F)c1cc(Br)cc2c1OCC2 (stereo unspecified)
124 to 128 °C
CS(=O)(=O)c1ccc(C(CC2CCCC2)C(=O)Nc2ccccn2)cc1Br (stereo unspecified)
99 to 101 °C
CC(C)c1ccc2c(c1)c(SC(C)(C)C)c(CC(C)(C)C(=O)O)n2Cc1ccc(Cl)cc1
189 to 192 °C
CCOC(=O)c1coc2cc(NS(C)(=O)=O)c(Oc3ccccc3)cc2c1=O
167 to 168 °C
CN(CC(=O)OC(C)(C)C)c1cncc(-c2nc(=O)c3ccccc3s2)n1
189 to 190 °C

INPUT: melting point for `CCCOc1c2cc(F)c(F)cc2nc2c1c(C)nn2-c1ccccn1` ?
OUTPUT: 162 to 163 °C

INPUT: melting point for `CC(=O)N[C@H]1CC[C@H](CCN2CCN(c3nccc4ccoc34)CC2)CC1` ?
OUTPUT: 157 °C

INPUT: melting point for `CN(C)c1cc(CO)ncc1F` ?
OUTPUT: 80 to 82 °C

INPUT: melting point for CCCCCCOc1ccc(CC(C)C(=O)Oc2ccc(-c3ccc(F)cc3)cc2)cc1 (stereo unspecified) ?
OUTPUT: 78.4 to 79.5 °C

INPUT: melting point for CCOC1=NC(N)=C(C(=O)OC)C(c2cccc(Cl)c2)C1C(=O)OC (stereo unspecified) ?
OUTPUT: 158 °C

---

MEASURE_NAME: melting point

CC(C)NS(=O)(=O)c1ccc(S(N)(=O)=O)cc1
166 to 168 °C
O=C(C#Cc1ccc(C(=O)O)cc1)Nc1ccccc1
271 to 272 °C
Cc1oc(-c2ccccc2)nc1CCOc1ccc(C[C@H](NC(=O)C=Cc2ccc(F)cc2F)C(=O)O)cc1Br
221 to 223 °C
COCCn1cc(-c2ccccc2)n(C(=O)c2ccccc2)c1=O
112 to 117 °C
CC(C)(C)OC(=O)CN1CCSC1=NC#N
143 to 144 °C

INPUT: melting point for `NC(=O)C1c2ccccc2-c2ccccc21` ?
OUTPUT: 250 °C

INPUT: melting point for Cc1c(N2CC(COC(=O)C(C)C)C(COC(=O)C(C)C)C2)c(F)cc2c(=O)c(C(=O)O)cn(C3CC3)c12 (stereo unspecified) ?
OUTPUT: 141 to 143 °C

INPUT: melting point for `COc1ccc(C(=O)c2cccc(N)c2)cc1OC` ?
OUTPUT: 157 to 175 °C

INPUT: melting point for `CCCc1nc(C(=O)C(C)(C)C)c(C#N)[nH]1` ?
OUTPUT: 176 to 178 °C

INPUT: melting point for `CCOC(=O)N1CCC(CCCOc2ccc(C3=NCCCO3)cc2)CC1` ?
OUTPUT: 128 °C

INPUT: melting point for `CCCOc1cc([N+](=O)[O-])ccc1Cl` ?
OUTPUT: 52 to 53 °C
